Data provenance: patent US9365522B2

Biological target: human RORγ-LBD (Homo sapiens)
Construct: made in house; host or cells: E. coli (BL-21)
Sequence (P51449 262-518): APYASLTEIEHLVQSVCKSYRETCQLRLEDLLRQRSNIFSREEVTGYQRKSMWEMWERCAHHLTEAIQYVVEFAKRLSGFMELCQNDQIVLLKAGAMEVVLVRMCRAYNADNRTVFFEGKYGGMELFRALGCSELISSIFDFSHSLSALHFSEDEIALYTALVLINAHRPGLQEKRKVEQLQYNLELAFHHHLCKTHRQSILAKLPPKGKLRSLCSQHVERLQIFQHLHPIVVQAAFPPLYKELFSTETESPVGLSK
Experiment: ROR gamma coactivator peptide recruitment Alphascreen assay (RORγ-LBD binding to GRIP1 coactivator peptide)
Assay type: biochemical
Details: 5 nM human RORγ-LBD, 30 nM 7-β-hydroxycholesterol, 50 nM biotinylated GRIP1 coactivator peptide, overnight incubation at room temperature; read-out: result (pIC50, RORγ coactivator peptide recruitment Alphascreen assay) (converted)
Known IC50 of a selection of compounds
Unit nM implied. Number only.

Query :: Consider the compound C[C@]1(C(=O)O)CC[C@H](n2ncc(C(=O)N(CC(=O)c3c(Cl)cccc3Cl)[C@H]3CCC34CCCC4)c2C(F)(F)F)CC1 [Example 649] and give its recorded IC50.
Result :: 1.82
